So I've got a bunch of binders here, and I need their IC50 (M), xCELLigence CHO Flp-In huCD123 cell killing, Human T cell mediated killing values.
Target: T1, Human T cell receptor on human primary T cells (human, UniProt P01848 1-140; P01850 1-176)
T1 TCR alpha (looked up): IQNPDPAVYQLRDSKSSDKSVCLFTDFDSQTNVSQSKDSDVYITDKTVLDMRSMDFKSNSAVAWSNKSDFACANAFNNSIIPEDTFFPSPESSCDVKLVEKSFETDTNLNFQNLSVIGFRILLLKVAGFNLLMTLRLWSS
T1 TCR beta (looked up): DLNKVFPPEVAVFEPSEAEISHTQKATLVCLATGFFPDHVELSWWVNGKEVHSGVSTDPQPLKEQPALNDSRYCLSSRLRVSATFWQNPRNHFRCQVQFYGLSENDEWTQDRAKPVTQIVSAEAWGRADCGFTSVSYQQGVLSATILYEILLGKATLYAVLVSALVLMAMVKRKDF
Test: cell-based or functional assay
State the value with its unit after it.

Input: Return reported IC50 (M), xCELLigence CHO Flp-In huCD123 cell killing, Human T cell mediated killing; argument: T017000131 (bispecific antibody, also called A0110056A10(E1D)-35GS-T0170056G05-A) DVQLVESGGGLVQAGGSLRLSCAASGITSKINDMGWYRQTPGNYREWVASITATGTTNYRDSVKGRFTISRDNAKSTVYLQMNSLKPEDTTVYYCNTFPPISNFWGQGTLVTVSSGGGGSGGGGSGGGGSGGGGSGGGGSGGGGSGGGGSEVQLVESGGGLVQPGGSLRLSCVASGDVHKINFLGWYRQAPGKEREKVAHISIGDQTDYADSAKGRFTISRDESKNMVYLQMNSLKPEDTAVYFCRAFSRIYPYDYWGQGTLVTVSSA
Output: 3.4e-11 M

Input: Ok, now T017000633 (bispecific antibody) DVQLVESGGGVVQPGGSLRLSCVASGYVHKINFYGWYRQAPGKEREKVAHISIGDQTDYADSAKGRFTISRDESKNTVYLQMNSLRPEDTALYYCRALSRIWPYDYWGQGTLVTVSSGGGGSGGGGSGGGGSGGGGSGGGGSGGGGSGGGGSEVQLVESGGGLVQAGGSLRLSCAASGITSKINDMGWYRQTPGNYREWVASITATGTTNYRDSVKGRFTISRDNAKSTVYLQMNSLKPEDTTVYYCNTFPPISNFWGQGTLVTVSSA
Output: 9.1e-12 M

Input: // query: T017000128 (bispecific antibody) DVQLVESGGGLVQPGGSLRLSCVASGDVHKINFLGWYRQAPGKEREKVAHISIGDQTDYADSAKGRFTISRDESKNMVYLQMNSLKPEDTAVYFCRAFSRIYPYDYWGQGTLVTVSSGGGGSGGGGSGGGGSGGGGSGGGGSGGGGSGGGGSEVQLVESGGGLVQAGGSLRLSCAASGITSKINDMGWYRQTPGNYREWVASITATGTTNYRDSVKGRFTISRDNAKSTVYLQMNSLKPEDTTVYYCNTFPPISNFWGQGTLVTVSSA
Output: 1.4e-11 M

Input: Try this binder too: T017000634 (bispecific antibody, also called A0110056A10(E1D)-35GS-T0170056G05(L11V, D27Y, L34Y, M77T, K83R, V89L, F91Y, F95L, Y99W)-A) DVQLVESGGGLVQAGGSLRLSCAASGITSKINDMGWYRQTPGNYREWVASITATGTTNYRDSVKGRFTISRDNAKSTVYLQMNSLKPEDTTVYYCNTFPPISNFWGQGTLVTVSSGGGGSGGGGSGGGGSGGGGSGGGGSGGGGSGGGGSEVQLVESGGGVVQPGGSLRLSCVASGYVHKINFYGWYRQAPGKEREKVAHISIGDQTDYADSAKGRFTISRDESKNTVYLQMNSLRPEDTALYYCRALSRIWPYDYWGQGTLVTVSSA
Output: 1.1e-11 M
